Target: Phosphatidylinositol 4,5-bisphosphate 3-kinase catalytic subunit delta isoform (Homo sapiens) (UniProt O00329);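 also: values are mean percent inhibition of PI3K-delta, part of the GSK PKIS screen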
Sequence (O00329 whole entry, canonical isoform): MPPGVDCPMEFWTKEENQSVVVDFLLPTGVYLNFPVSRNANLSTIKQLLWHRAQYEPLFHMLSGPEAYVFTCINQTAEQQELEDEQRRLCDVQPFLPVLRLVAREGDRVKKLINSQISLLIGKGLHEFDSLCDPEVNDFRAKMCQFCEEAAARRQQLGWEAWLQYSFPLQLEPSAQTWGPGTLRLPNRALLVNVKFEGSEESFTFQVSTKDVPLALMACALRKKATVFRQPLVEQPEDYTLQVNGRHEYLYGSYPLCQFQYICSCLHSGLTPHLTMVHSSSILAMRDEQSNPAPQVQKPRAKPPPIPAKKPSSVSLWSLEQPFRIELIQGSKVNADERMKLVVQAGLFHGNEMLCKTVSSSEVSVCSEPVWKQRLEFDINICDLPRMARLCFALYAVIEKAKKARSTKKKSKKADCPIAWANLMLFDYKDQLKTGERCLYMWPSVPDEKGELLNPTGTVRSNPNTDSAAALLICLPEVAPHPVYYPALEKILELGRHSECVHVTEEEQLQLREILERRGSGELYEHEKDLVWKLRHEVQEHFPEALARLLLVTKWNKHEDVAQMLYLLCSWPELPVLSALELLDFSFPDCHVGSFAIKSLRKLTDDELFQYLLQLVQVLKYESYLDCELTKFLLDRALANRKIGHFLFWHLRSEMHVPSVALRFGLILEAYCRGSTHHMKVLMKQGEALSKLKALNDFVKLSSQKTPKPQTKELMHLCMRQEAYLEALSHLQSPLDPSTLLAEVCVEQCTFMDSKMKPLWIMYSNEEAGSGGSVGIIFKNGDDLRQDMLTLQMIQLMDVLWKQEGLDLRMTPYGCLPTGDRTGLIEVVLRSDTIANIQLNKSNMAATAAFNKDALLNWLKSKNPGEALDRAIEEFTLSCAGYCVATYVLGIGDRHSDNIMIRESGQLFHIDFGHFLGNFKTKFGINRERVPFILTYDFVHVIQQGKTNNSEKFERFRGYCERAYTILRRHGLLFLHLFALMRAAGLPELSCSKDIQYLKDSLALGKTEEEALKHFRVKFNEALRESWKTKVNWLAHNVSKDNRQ
Conditions: at 0.1 µM
Give inhibition for every item shown.
Numbers only; they are read as %.

Per the record, Fc1cccc(COc2ccc(Nc3ncnc4sc(-c5ccco5)cc34)cc2Cl)c1 has inhibition of 2.28

Per the record, CC1=C(C(=O)Nc2cc(Cl)c3[nH]ncc3c2)C(c2ccc(C(F)(F)F)cc2)CC(=O)N1 (centres undefined) has inhibition of 1.38

Per the record, CNC(=O)c1cc(-c2ccc(F)cc2)cc(-c2ccc(S(=O)(=O)N3CCCC3)cc2)c1N has inhibition of 0.79

Per the record, CC(C)(CO)CNC(=O)c1ccc2c(c1)/C(=N/Nc1ccc(S(N)(=O)=O)cc1)C(=O)N2 has inhibition of -0.73

Per the record, CC(C)COC(=O)c1ccc2c(c1)/C(=C/Nc1ccc(S(N)(=O)=O)cc1)C(=O)N2 has inhibition of 0.18

Per the record, Nc1nc(-c2cccc(Cl)c2)c(-c2ccc3ncccc3n2)s1 has inhibition of 2.57

Per the record, O=C(O[C@H]1CN[C@H](C#Cc2cc3ncnc(Nc4ccc(Cc5ccccc5)cc4)c3s2)C1)N1CCOCC1 has inhibition of 1.42

Per the record, COc1cc2ncn(-c3cc(OCc4ccccc4C(F)(F)F)c(C(=O)N(C)C)s3)c2cc1OC has inhibition of 0.51

Per the record, N#Cc1c(NC(=O)c2ccc(F)cc2)sc2c1CCCC2 has inhibition of 1.32
